Value source: patent US20250277059A1

Molecular target: T1, Human TMPRSS2 recombinant protein, extracellular region (N-terminal His tag, C-terminal Strep-tag II) (human, UniProt O15393 106-492)
T1 construct: also called Human TMPRSS2 recombinant proteins; extracellular region of human TMPRSS2
T1 sequence (O15393 other isoform, or with tags, fused parts or gaps limits assumed): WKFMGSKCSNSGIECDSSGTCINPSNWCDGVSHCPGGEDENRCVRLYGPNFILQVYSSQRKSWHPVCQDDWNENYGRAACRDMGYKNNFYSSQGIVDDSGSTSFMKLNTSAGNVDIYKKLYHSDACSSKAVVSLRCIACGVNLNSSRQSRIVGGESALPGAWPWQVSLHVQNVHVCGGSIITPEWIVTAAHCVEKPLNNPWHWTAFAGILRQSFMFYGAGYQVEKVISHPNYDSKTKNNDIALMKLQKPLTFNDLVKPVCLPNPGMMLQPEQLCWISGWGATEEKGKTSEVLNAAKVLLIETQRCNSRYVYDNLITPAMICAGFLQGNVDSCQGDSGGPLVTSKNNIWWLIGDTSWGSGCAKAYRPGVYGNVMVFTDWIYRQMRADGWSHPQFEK
Experiment: SPR (BIACore)
Readout type: Kd (nM)
Lab book: enter the figure in nM, no units written.

*Q* Entry humanized 752-1 IgG4 (S108P) prototype #2 (antibody, V domains shown, also called humanized #2; hu #2) VH: QVQLVQSGAEVKKPGASVKVSCKASGYTFTSCGISWVRQAPGQGLEWMGEIYPRGGNTYYNEKFKGRVTMTTDTSTSTAYMELRSLRSDDTAVYYCARENGNYDPLFAYWGQGTLVTVSS VL: DIQMTQSPSSLSASVGDRVTITCKASQDINKYIAWYQQKPGKAPKLLIHYTSTLQPGVPSRFSGSGSGTDFTFTISSLQPEDIATYYCLQYYNLWTFGGGTKVEIK has what Kd?
*A* 13.4

*Q* Entry humanized 752-1 IgG4 (S108P) prototype #4 (antibody, V domains shown, also called humanized #4; hu #4) VH: QVQLQQSGTGLARPGASVKLSCKASGYTFTSCGISWVTQRAGQGLEWIGEIYPRGGNTYYNEKFKGKATLTADKSSSSAYMELRGLTAEDSAVYFCARENGNYDPLFAYWGQGTTLTVSS VL: DIQMTQSPSSLSASVGDRVTITCKASQDINKYIAWYQQKPGKAPKLLIHYTSTLQPGVPSRFSGSGSGTDFTFTISSLQPEDIATYYCLQYYNLWTFGGGTKVEIK has what Kd?
*A* 2.44

*Q* Entry humanized 2228-15 IgG4 (S108P) prototype #1 (antibody, V domains shown, also called humanized #1; hu #1) VH: QVQLVQSGAEVKKPGASVKVSCKASGYTFTDYYINWVRQAPGQGLEWMGWIFPGSGSSYYNAIFKGRVTMTRDTSISTAYMELSRLRSDDTAVYYCARGDFGNFGGFFTYWGQGTLVTVSS VL: DVVMTQSPLSLPVTLGQPASISCRASKSVSTSGYSFMHWFQQRPGQSPRRLIYLASNLESGVPDRFSGSGSGTDFTLKISRVEAEDVGVYYCQHSRELPLTFGGGTKVEIK has what Kd?
*A* 12.3

*Q* Entry humanized 752-1 IgG4 (S108P) prototype #1 (antibody, V domains shown, also called humanized #1; hu #1) VH: QVQLVQSGAEVKKPGASVKVSCKASGYTFTSCGISWVRQAPGQGLEWMGEIYPRGGNTYYNEKFKGRVTMTTDTSTSTAYMELRSLRSDDTAVYYCARENGNYDPLFAYWGQGTLVTVSS VL: DIQMTQSPSSLSASVGDRVTITCKASQDINKYIAWYQQKPGKAPKLLIYYTSTLQPGVPSRFSGSGSGTDFTFTISSLQPEDIATYYCLQYYNLWTFGGGTKVEIK has what Kd?
*A* 22.6
